B1: HEEH_KT_rd6_3546 (parent)
chain: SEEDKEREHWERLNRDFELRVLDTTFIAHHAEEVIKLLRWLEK

- Variants of: B1
- measurement-protocol: folding stability dG (cDNA display proteolysis); higher = more stable
- test-conditions: PBS, room temperature
measured-endpoint: folding stability dG (kJ/mol)
Numbers only, in kJ/mol.

Study these solved cases before continuing.
> print(dat)
   variant.id  unit.symbol  observed.measurement
1         E2Y       kJ/mol                  6.08
2        A28C       kJ/mol                  9.32
3        D23S       kJ/mol                   8.1
4        H29I       kJ/mol                  10.5
5        T24M       kJ/mol                  7.64

Would you mind giving folding stability dG for every variant in the list below?
1. D4Y
2. L38P
3. L37F
4. K43S
5. E42S
6. K5G
7. E2V
8. F26W

Result:
1. 5.72
2. -1.81
3. 6.77
4. 5.02
5. 7.71
6. 5.3
7. 6.08
8. 7.11

Please state folding stability dG for every variant in the list that follows.
1. E3S
2. T24V
3. F26K
4. H9C
5. I27K
6. S1K
7. V21P
8. H30F

Result:
6.05
8.93
2.11
10.6
2.56
4.95
3.56
9.61

Q: I'd like to know its folding stability dG. The variant in question is `L22Y`
Result: 6.99

Values from the MegaScale stability set (Tsuboyama et al. 2023)
